molecular target: PDGFRalpha(V561D) (Homo sapiens, UniProt P16234, V561D); construct: recombinant human PDGFRalpha, amino acids 550end containing the V561 D mutation; 6His (N); assay: PDGFRalpha(V561D) assay; settings: recombinant human PDGFRalpha aa 550-end, 200 μM ATP, 1.4E-06 means 1.4×10^−6, read-out: Inhibition (IC50) of PDGFRα (V561D)
Sequence (P16234 550-1089 V561D): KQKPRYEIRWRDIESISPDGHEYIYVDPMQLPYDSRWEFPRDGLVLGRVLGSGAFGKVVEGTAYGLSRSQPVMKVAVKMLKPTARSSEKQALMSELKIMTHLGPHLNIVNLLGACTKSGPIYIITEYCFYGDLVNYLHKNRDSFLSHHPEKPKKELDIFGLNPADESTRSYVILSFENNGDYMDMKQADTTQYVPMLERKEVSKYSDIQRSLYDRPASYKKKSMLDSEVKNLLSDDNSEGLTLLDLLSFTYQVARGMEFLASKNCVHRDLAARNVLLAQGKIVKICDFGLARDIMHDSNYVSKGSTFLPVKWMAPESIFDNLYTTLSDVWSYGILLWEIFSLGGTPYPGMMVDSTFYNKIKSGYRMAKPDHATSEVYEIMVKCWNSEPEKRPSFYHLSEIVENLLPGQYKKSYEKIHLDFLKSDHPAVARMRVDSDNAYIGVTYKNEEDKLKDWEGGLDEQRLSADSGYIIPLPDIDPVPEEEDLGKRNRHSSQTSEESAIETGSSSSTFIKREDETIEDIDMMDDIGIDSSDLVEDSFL
resultType: IC50 (µM)

compound	resultType	valueUnits	observedValue
O=C(c1cccc(-n2cc(-c3cc4ccccc4[nH]c3=O)nn2)c1)N1CCNCC1 [A78]	IC50	µM	0.031
CN(C)[C@H]1[C@@H]2CN(C(=O)c3ccc(-n4cc(-c5cc6cc(F)ccc6[nH]c5=O)nn4)cc3)C[C@@H]21 [A330]	IC50	µM	0.021

[a] CN(C)C[C@@H]1CCCN1C(=O)c1ccc(-n2cc(-c3cc4cc(F)c(F)cc4[nH]c3=O)nn2)cc1 [A323]
[b] O=C(c1ccc(-n2cc(-c3cc4cc(Cl)ccc4[nH]c3=O)nn2)cc1)N1CCN(C2COC2)CC1 [A250]
*Q* # return whichever of a and b has the smaller IC50 Provide the label of your selected option as the answer.
*A* b

[A] O=c1[nH]c2ncc(F)cc2cc1-c1cn(-c2ccc(N3CCCNCC3)cc2)nn1 [A124]
[B] CO[C@@H]1CCCN(C(=O)c2ccc(-n3cc(-c4cc5cc(F)ccc5[nH]c4=O)nn3)cc2)C1 [A194]
[C] CN(C)[C@@H]1CCCN(C(=O)c2ccc(-n3cc(-c4cc5cc(F)ccc5[nH]c4=O)nn3)cc2)C1 [A331]
*Q* Write the entries in order, lowest recorded IC50 first. Your answer should be the labels, listed in the requested order.
*A* A, B, C
(A: 0.009 µM, B: 0.091 µM, C: 0.57 µM)
